Origin of measurements: PubChem BioAssay (NCI)

- Tested on: MOLT-4 leukemia
- TEST_METHOD_NOTES: NCI-60 one-dose screen, 48 h (100 = growth as untreated, 0 = no growth, -100 = all killed)
- ASSAY_CONDITIONS: 10 µM unless noted
This is part of a sample that, as a whole, favours compounds with a hit. Of some 83,000 tested, about 20% had one in any assay.
Recorded growth, one value per entry.

| COMPOUND | TARGET | UNITS | growth |
| --- | --- | --- | --- |
| C[C@]12CC[C@H]3[C@@H](C[C@@H]4SC(Nc5ccccc5)=N[C@@]45CC(O)CC[C@]35C)[C@@H]1CCC2O (stereo partly drawn) | MOLT-4 leukemia | % | 6.79 |
| C[C@]12CC[C@H]3[C@@H](CC4SC(N)=NC45C/C(=N/NC(N)=O)CC[C@]35C)[C@@H]1CCC2=O (stereo partly drawn) | MOLT-4 leukemia | % | 13.4 |
| O=[N+]([O-])c1cc([N+](=O)[O-])c(Nn2c3ccccc3c3ccccc32)c([N+](=O)[O-])c1 | MOLT-4 leukemia | % | 0.889 |
| CCC[CH2][Sn]([CH2]CCC)([CH2]CCC)[O]c1ccc(Cl)cc1Cl | MOLT-4 leukemia | % | -6.07 |
| COc1cc(NCCCN=C(N)N)c2ncccc2c1 | MOLT-4 leukemia | % | 94.1 |
| N#C[Se]CCN1C(=O)c2ccccc2C1=O | MOLT-4 leukemia | % | 17.4 |
| CC[C@H](C)[C@H](NC(=O)c1cccn1C)C(=O)N(C)[C@H](C[C@@H](OC(C)=O)c1nc(C(=O)N[C@@H](Cc2ccccc2)C[C@H](C)C(=O)OC)cs1)C(C)C | MOLT-4 leukemia | % | 16.2 |
| CC(=O)Nc1nc2c(s1)CC[C@@]1(C)C2=CC[C@H]2[C@@H]3CC[C@H](O)[C@@]3(C)CC[C@@H]21 | MOLT-4 leukemia | % | 50.8 |
